System: UACC-257 melanoma
TEST_METHOD_NOTES: NCI-60 one-dose screen, 48 h (100 = growth as untreated, 0 = no growth, -100 = all killed)
STATED_CONDITIONS: 10 µM unless noted
About 83,000 compounds went through this panel and 20% of them were active in at least one assay; those are over-represented in the sample as a whole. The source made the active and inactive calls. The calls were made as follows: active = growth percent below 10; inactive = the rest.

| MOLECULE | growth |
| --- | --- |
| CCCCc1n(Cc2ccc3ccccc3n2)cc[n+]1Cc1ccc2ccccc2n1 | -11.9% (active) |
| CCN(CC)CCCC(C)Nc1cnc(C(=O)Nc2ccc(Cl)c3cccnc23)cn1 (stereo not given) | -33% (active) |
| CC1=C(C(=O)Nc2ccc(F)cc2)C(c2ccccc2)C2=C(CC(C)(C)CC2=O)N1 (stereo not given) | 83.6% (inactive) |
| O=C(Nc1ccc(Oc2ccc(NC(=O)Nc3ccccc3Cl)cc2)cc1)Nc1ccccc1Cl | 60.5% (inactive) |
| CN=C1C=C/C(=N/N=c2/ccn(O)cc2C)C=C1C | 98.5% (inactive) |

----------
Tested on: OVCAR-4 ovarian
TEST_METHOD_NOTES: NCI-60 one-dose screen, 48 h (100 = growth as untreated, 0 = no growth, -100 = all killed)
STATED_CONDITIONS: 10 µM unless noted
Compounds without any hit were thinned out: in the full panel of roughly 83,000, 20% have a hit. The source made the active and inactive calls. How the source made its calls: active means growth percent below 10; inactive means the rest.
Catalogue of compounds with associated growth
MEASUREMENT_LABEL: growth

| COMPOUND | MEASUREMENT_LABEL | RESULT |
| --- | --- | --- |
| C#CC[C@@H]1C[C@]2(C)[C@H]3CC=C4[C@H]5[C@@H](C)[C@H](C)CC[C@]5(C(=O)NCCCCN)CC[C@@]4(C)[C@]3(C)CC[C@H]2C(C)(C)[C@H]1OC(C)=O | growth | 68.3% (inactive) |
| Clc1ccc(Nc2ncnc3c2sc2ncccc23)c(Cl)c1 | growth | 84.9% (inactive) |
| Cc1[nH]n(C(=O)c2ccncc2)c(=O)c1N=Nc1ccc(O)c(C(=O)O)c1 | growth | 109% (inactive) |
| Cc1ccc(CSCc2ccc(C(=O)NC3CC3)o2)cc1 | growth | 69.1% (inactive) |
| C=C1NC(=O)C(C(C)CC)NC(=O)C2CSCC(NC(=O)CCC(=O)O)C(=O)NC(Cc3ccccc3)C(=O)NC(C)C(=O)NC(CC(C)CC)C(=O)NC(C(=O)NC(Cc3ccccc3)C(=O)N3CCCC3C(=O)N2)C(C)OC(=O)C(CO)NC(=O)C(C(O)COC)N(C)C(=O)C(C(C)C)NC(=O)C(CC(C)CC)NC1=O (stereo not given) | growth | 55.6% [6 µM] (inactive) |

----------
System: BT-549 breast
TEST_METHOD_NOTES: NCI-60 one-dose screen, 48 h
STATED_CONDITIONS: 10 µM unless noted
The panel holds about 83,000 compounds, 20% with a hit somewhere; the sample as a whole holds those more often. Active and inactive are the calls of the source. Rule for the calls: active = growth percent below 10; inactive = the rest.
Classes used: active, inactive

| COMPOUND | ASSAYED_TARGET | QUALITATIVE_LABEL |
| --- | --- | --- |
| O=C(Nc1ccccc1Cl)Oc1ccc2ccccc2c1 | BT-549 breast | inactive |
| Nc1ccc(N(O)/C=C2\C=CC=CC2=O)cc1N | BT-549 breast | inactive |
| CN(C)c1ccc(C(c2ccccc2)c2ccc(N(C)C)cc2)cc1 | BT-549 breast | inactive |
| CCCCOc1ncnc2nc[nH]c12 | BT-549 breast | inactive |
| CCOC(=O)C1=C(C)NC(SCc2nnc(-c3ccc(Cl)cc3)o2)=NC1c1ccc(Br)cc1 (configuration not stated) | BT-549 breast | inactive |
| O=C1C2=C(C(=O)c3c(O)ccc(O)c31)N(c1ccc(N3CCOCC3)nc1)Cc1ccccc1O2 | BT-549 breast | active |
| COC(=O)C1(C)COP(=O)(NC23CC4CC(CC(C4)C2)C3)OC1 (configuration not stated) | BT-549 breast | inactive |
| Nc1cccc(S(=O)(=O)c2cccc(N)c2)c1 | BT-549 breast | inactive |
| O=C(NCCNC(=O)c1cc(S(=O)(=O)NCCc2ccccc2)c(O)c(O)c1O)c1cc(S(=O)(=O)NCCc2ccccc2)c(O)c(O)c1O | BT-549 breast | inactive |
| CN=C1C=C/C(=N/N=c2/ccn(O)cc2C)C=C1C | BT-549 breast | inactive |
| COc1ccc(C(=O)c2c(N)nc3n2CCCC3)cc1OC | BT-549 breast | inactive |
| COc1cc(C2=NOC(c3cc(OC)c(OC)c(OC)c3)C2)ccc1OCCCCOc1cc2c(cc1OC)C(=O)N1CCC[C@H]1C=N2 (some centres not stated) | BT-549 breast | active |
| CN(C)CCOc1nc2c3cccnc3cc(-c3cccc(Cl)c3)c2c2ncccc12 | BT-549 breast | inactive |
| O=C(NC1CC1)c1ccc(-c2nc3ccc4[nH]ncc4c3c3c2CCCC3)cc1 | BT-549 breast | inactive |
| N=C(N)c1ccc(-c2ccc(-c3cc(Cl)cc(Cl)c3)o2)nc1 | BT-549 breast | inactive |
| COc1ccc(/C=C2\N=C(c3cccnc3)N(c3ccccc3)NC2=O)cc1 | BT-549 breast | inactive |
| Nc1nc(N)c2c(n1)NC(c1sc(Cl)nc1Cl)CC(c1ccccc1)=N2 (configuration not stated) | BT-549 breast | inactive |
| Cc1ccc(NC(=O)c2[nH]c(SCCN(C)C)nc2-c2ccc(F)cc2)cc1C#Cc1cnc2cccnn12 | BT-549 breast | inactive |
| CCCc1n(Cc2ccc3ccccc3n2)cc[n+]1Cc1ccc2ccccc2n1 | BT-549 breast | inactive |
| COc1ccc([C@@H]2[C@@H](Oc3ccccc3)C(=O)N2c2cc(OC)c(OC)c(OC)c2)cc1F | BT-549 breast | active |
| Nc1nonc1-c1nc2ccccc2n1Cc1ccc(F)cc1 | BT-549 breast | inactive |
| CCCCN(CCCC)CCCN=c1nc2c(c(N)n1-c1ccccc1)c(=S)n(-c1ccccc1)c(=S)n2-c1ccccc1 | BT-549 breast | active |
| CCOC(=O)C(=CNc1ccccc1Cl)C(=O)OCC | BT-549 breast | inactive |
| CCCCCCCCCCCCCC(=S)NCCCC[C@H](NC(=O)OCc1ccccc1)C(=O)Nc1ccccc1 | BT-549 breast | inactive |
| COc1cc(NC(C)CCCN)c2ncccc2c1Oc1ccc(Cl)cc1 (configuration not stated) | BT-549 breast | inactive |
| COc1cc2cc(C(=O)Nc3ccccc3)c(N)nc2cc1OC | BT-549 breast | inactive |
| Cc1cc(C)c2c(n1)sc1c(Nc3ccc(OCc4ccccc4)cc3)ncnc12 | BT-549 breast | inactive |
| NC(N)=N/N=C\c1cccc(OCc2ccccc2)c1 | BT-549 breast | inactive |
| O=C1C=CC(=O)N1c1cccc(N2C(=O)C=CC2=O)c1 | BT-549 breast | inactive |
| CCc1ccc(-c2ccc(NC3CCCCCC3)nn2)cc1S(N)(=O)=O | BT-549 breast | inactive |
| CSC(=S)N/N=C(\C)c1ccccn1 | BT-549 breast | inactive |
| CN1CCN(Cc2ccc(NC(=O)c3cccc(C#Cc4cnc(N)c5ncccc45)c3F)cc2C(F)(F)F)CC1 | BT-549 breast | inactive |
| COc1ccc2c(c1)N(CCO)C1=C(C(=O)OC1)C2c1cccc(Br)c1 (configuration not stated) | BT-549 breast | inactive |
| F | BT-549 breast | active |
| CC1=C(C(=O)Nc2ccc(F)cc2)C(c2ccccc2)C2=C(CC(C)(C)CC2=O)N1 (configuration not stated) | BT-549 breast | inactive |
| COc1cc(C(=O)/C=C/c2cn(-c3ccccc3)nc2-c2cccc(Nc3ccnc4cc(Cl)ccc34)c2)cc(OC)c1OC | BT-549 breast | inactive |
| CC(=O)N(C)c1ccc(Nc2cc(C)[nH]c3ccc4ncnc4c23)cc1 | BT-549 breast | inactive |
| CCOC(=O)c1ccc(NC(=O)NC2=NCCS2)cc1 | BT-549 breast | inactive |
| Fc1cnccc1-c1nc2ccc3[nH]ncc3c2c2c1CCCC2 | BT-549 breast | inactive |
| COc1ccc(/C=c2\c(=O)n(-c3ccccc3)c3nn4c(=O)c(=O)[nH]nc4n23)cc1 | BT-549 breast | inactive |
| C1=C\CCCCN2CC[C@H]3[C@H](CCCC/C=C\CCCN4C[C@@H](CCCCC/1)C[C@@H]3C4)C2 | BT-549 breast | inactive |
| O=C1OCC2=C1C(c1ccc(Cl)c(Cl)c1)c1cc3c(cc1N2CCO)CCC3 (configuration not stated) | BT-549 breast | inactive |

----------
Test system: SW-620 colon
TEST_METHOD_NOTES: NCI-60 one-dose screen, 48 h
STATED_CONDITIONS: 10 µM unless noted
The panel holds about 83,000 compounds, 20% with a hit somewhere; the sample as a whole holds those more often. Active and inactive are the calls of the source. Rule for the calls: active = growth percent below 10; inactive = the rest.
Classes used: Y for active, N for inactive

| MOLECULE | QUALITATIVE_LABEL |
| --- | --- |
| CC(C)=CCC[C@H](C)c1ccc(C)c2c1OCN(CCO)C2 | N |
| CC1CCN(Cc2ccc(NC(=O)c3cc4ccc5cccnc5c4[nH]3)cc2)CC1 | N |
| COc1cc(-c2csc(NC(=O)Nc3cccc(C(F)(F)F)c3)n2)cc(OC)c1OC | N |
| COc1c(C(=O)/C=C/c2ccc(C)o2)c(O)cc2occc12 | N |
| COc1cc(C2CC(c3ccc(Nc4ccnc5cc(Cl)ccc45)cc3)=NN2c2ccccc2)cc(OC)c1OC (centres undefined) | N |
| COc1cc(C)cc2oc3oc(=O)c(-c4csc(-c5cc6ccccc6oc5=O)n4)cc3c(=O)c12 | N |
| C=CC[C@]1(O)CC[C@H]2[C@@H]3CCc4cc(O)ccc4[C@H]3CC[C@@]21C | N |
| COc1cccc2nc(Nc3cccc(NC(=O)c4cc(N5CCOCC5)cc(C(F)(F)F)c4)c3)ccc12 | N |
| Cc1ccc2oc(=O)cc(-c3nc4ccc([N+](=O)[O-])cc4[nH]3)c2c1 | N |
| CN(C)c1ccc(/C=N/Nc2nnc3n2N=C(c2ccc(Cl)cc2)CS3)cc1 | N |
| Cc1cc(C)c2c(n1)sc1c(Nc3ccc(O)cc3)ncnc12 | N |
| CC(C)(C)c1ccc(Cn2c(-c3nonc3N)nc3ccccc32)cc1 | N |
| CN1CCN(Cc2ccc(NC(=O)c3cncc(C#Cc4ncc5cnccn45)c3)cc2C(F)(F)F)CC1 | N |
| FC1(F)CCN(Cc2c[nH]c3cc(Cl)ccc23)C[C@H]1CCc1ccccc1 | N |
| CC1CN(CCCOC(=O)Nc2ccc(Cl)cc2)CCN1C(C)(C)C (centres undefined) | N |
| O=C(NCC(c1ccsc1)N1CCCCCC1)c1ccc(C(F)(F)F)cc1 (centres undefined) | N |
| CSC1=NC(=Nc2c(C)cccc2C)C2(CCC(C(C)(C)C)CC2)N1c1ccc(Cl)cc1 (centres undefined) | N |
| COc1ccc2[nH]c(O)c(/C=c3/ccc4c(c3)N=C(c3ccc(C(F)(F)F)cc3)N=4)c2c1 | N |
| CC(C)COC(=O)NC(C)(C)C | N |
| Cc1[nH]n(C(=O)c2ccncc2)c(=O)c1N=Nc1ccc(O)c(C(=O)O)c1 | N |
| C=C(CN1CC=CCC1)[C@@H]1CC[C@]2(C(=O)OC)CC[C@]3(C)[C@H](CC[C@@H]4[C@@]5(C)CC[C@H](OC(C)=O)C(C)(C)[C@@H]5CC[C@]43C)[C@@H]12 | N |
| CCCCNCCC(O)c1cc2ccc(C(F)(F)F)cc2c2cc(C(F)(F)F)ccc12 (centres undefined) | Y |
| CCCCCCCCCCCCCC(=S)NCCCC[C@H](NC(=O)OCc1ccccc1)C(=O)Nc1ccccc1 | N |
| O=S(=O)(NCC[C@@H]1C[C@H]1c1ccc2ccccc2c1)c1ccc(C(F)(F)F)cc1 | N |
| CCCCN(CCCC)CCCN=c1nc2c(c(N)n1-c1ccccc1)c(=S)n(-c1ccccc1)c(=S)n2-c1ccccc1 | Y |
| Cc1cc(Cl)c2ccc(N(C)C)cc2n1 | N |
| CCOC(=O)C1=C(C)NC(SCc2nnc(-c3ccc(Cl)cc3)o2)=NC1c1ccc(Br)cc1 (centres undefined) | N |
| CC(=O)c1ccc(Nc2nc(Cl)nc(Oc3c(Cl)cccc3Cl)n2)cc1 | N |
| CNC(=O)c1cc(Oc2ccc(NC(=O)c3[nH]c(SC)nc3-c3ccc(F)cc3)cc2)ccn1 | N |
| COc1cc(C2CC(c3cccc(Nc4ccnc5cc(Cl)ccc45)c3)=NN2c2ccc(Cl)cc2)cc(OC)c1OC (centres undefined) | N |
| C=CCn1c(SCC(=O)Nc2ccc(/C(C)=N\O)cc2)nnc1-c1cc(-c2ccccc2)nc2ccccc12 | N |
| CCCCn1cnc(-c2cc(-c3ccccc3)cc(C(F)(F)F)c2)n1 | N |
| Cc1[nH]nc2ccc3nc(-c4ccc5[nH]ncc5c4)c4c(c3c12)CCCC4 | Y |
| Nc1nc(N)c2c(n1)NC(c1sc(Cl)nc1Cl)CC(c1ccccc1)=N2 (centres undefined) | N |
| O=C(O)c1ccccc1N=Cc1ccccc1 | N |
| COc1cc(C2CC(c3ccc(Cl)cc3)=NN2C=O)ccc1OS(=O)(=O)c1ccc(C)cc1 (centres undefined) | N |
| O=C1C=CC(=O)N1c1cccc(N2C(=O)C=CC2=O)c1 | Y |
| CC(C)NC(=O)OCC#CCOC(=O)NC(C)C | N |
| CC(=O)c1cc(C(=O)c2ccc3c(c2)Sc2ccccc2N3)c2c(C)cccn12 | N |

Data credit: PubChem BioAssay (NCI)
